tested on: SN12C; assay: NCI tumour cell line growth inhibition, 48 h
Active and inactive are the calls of the source. Cut-off read from the data, not from the text of the source: active = GI50 up to about 1.1 µM and inactive = higher.
Form entry, call: pick from active, inactive

| compound | target.or.test.system | label.value |
| --- | --- | --- |
| CC(=O)OCC1OC(N2C(=O)C(=O)c3ccccc32)C(OC(C)=O)C(OC(C)=O)C1OC(C)=O (stereo not given) | SN12C | inactive |
| O=C1Nc2cccc3cc(NCC(O)CCl)cc1c23 (stereo not given) | SN12C | inactive |

q: # fetch the recorded call for O=C1C(Br)=CC2(C=C1Br)CCNC1=C2C(=O)c2cccnc2C1=O here
a: inactive

q: How about O=C(O)C(Cc1ccc(O)c([N+](=O)[O-])c1)N1C(=O)c2ccccc2C1=O (stereo not given) ?
a: inactive
